assay: M. tuberculosis H37Rv growth inhibitors, H37Rv strain (AID 1626); conditions: stronger effect = higher value, concentration not given here;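 also: bacteria incubated seven days before Alamar blue readout; 0% = bacteria only wells and 100% = bacteria with antibiotic wells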
Among all 220,000 compounds or so, about 2,000 (0.91%) were called active. Not shown: some 2% with an inconclusive outcome. The list is a sample of the results. Results with a measured potency or affinity are listed apart.
MEASURE: inhibition (%)
Answers are plain numbers, in %.

{"TEST SMILES": "Cc1ccc(C(=O)NCCSC(C)(C)C)cc1", "U": "%", "inhibition": 2.64}
{"TEST SMILES": "Clc1ccccc1OCc1nn[nH]n1", "U": "%", "inhibition": -3.82}
{"TEST SMILES": "COc1ccc(C(=O)/C=C/Nc2ccc(NC(C)=O)cc2)cc1OC", "U": "%", "inhibition": 0.63}

Hi! Can you tell me inhibition for each of these compounds?
1. O=C(c1cc(-c2ccncc2)nc2ccc(Cl)cc12)N1CCN(Cc2ccc3c(c2)OCO3)CC1
2. Cc1ccccc1Nc1c(-c2ccc(N3CCOCC3)cc2)nc2cnccn12
3. CCOC(=O)c1ccc(N/C=C/C(=O)c2ccc(OC)cc2)cc1

1: 0.94; 2: -3.6; 3: 77.2

----------
experiment: M. tuberculosis H37Rv growth inhibitors, H37Rv strain (AID 1626); details: stronger effect = higher value, concentration not given here
Hit rate of the full screen: of about 220,000 compounds, about 2,000 (0.91%) were called active. Another 2% or so got no clear call; they are omitted. Not all results are given here. Entries with a potency or affinity are not part of this list.
I'd appreciate it if you could supply inhibition values for the items below.
One number for each entry, in %.

{"MOLECULE": "COc1ccc(C2=NOC(C)(c3nnc(-c4ccc(F)cc4)o3)C2)cc1 (stereo unspecified)", "U": "%", "RECORDED MEASUREMENT": -6.66}
{"MOLECULE": "CSc1ncc(CO)n1Cc1ccccc1", "U": "%", "RECORDED MEASUREMENT": -4.14}
{"MOLECULE": "COc1cc(NS(=O)(=O)c2ccc(NC(C)=O)cc2)ncn1", "U": "%", "RECORDED MEASUREMENT": 6.36}

Hi! Can you tell me inhibition for each of these molecules?
1. COc1ccc(C)cc1S(=O)(=O)N1CCN(c2cccc(C(F)(F)F)c2)CC1
2. COc1cc(NS(=O)(=O)c2ccc(N)cc2)nc(OC)n1
3. O=C(OCC(=O)N1CCCCCC1)c1ccc([N+](=O)[O-])cc1Cl

-1.59
14.8
20.3

----------
I'd appreciate it if you could supply inhibition values for the items below.
assay: M. tuberculosis H37Rv growth inhibitors, H37Rv strain (AID 1626); settings: stronger effect = higher value, concentration not given here;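 also: bacteria incubated seven days before Alamar blue readout; 0% = bacteria only wells and 100% = bacteria with antibiotic wells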
In all, about 220,000 compounds went through this assay and about 2,000 (0.91%) were called active. Not shown: some 2% with an inconclusive outcome. The list is a sample of the results. Potency and affinity values are given separately.
Answers are plain numbers, in %.

{"COMPOUND": "CN1C(C(=O)NCC2CC2)CC2Cn3c(nc4cc5ccccc5cc43)C21 (stereo unspecified)", "inhibition, %": -9.29}
{"COMPOUND": "CCOC(=O)c1cnc2ccc(OC)cc2c1NCc1ccccc1", "inhibition, %": 20.8}
{"COMPOUND": "Cc1ccc(NC2=NCC(Cc3ccc(Br)cc3)S2)cc1 (stereo unspecified)", "inhibition, %": 44.8}

Hi! Can you tell me inhibition for each of these compounds?
1. O=C(/C=C/c1cccs1)N1CCCCC1
2. COc1cc(SC)ccc1C(=O)OCC(=O)NC1CC1
3. CC1CN(C(=O)/C=C/c2ccc([N+](=O)[O-])s2)CC(C)O1 (stereo unspecified)
4. S=C1NC2(CCCCC2)Cc2ccccc21

1: 12.9; 2: 2.29; 3: 6.46; 4: 4.66

Hi! Can you tell me inhibition for each of these compounds?
1. Cc1ccc(/C=C/C(=O)N2CC(C)CC(C)C2)o1 (stereo unspecified)
2. Cc1cc(C)cc(NC(=O)c2ccccc2CC[N+](=O)[O-])c1
3. Cc1nc2cc3sc(C)nc3cc2s1
4. Cc1ccc(SCc2nc(-c3ccccn3)no2)cc1

1: 15.8; 2: 58.2; 3: -1.33; 4: 11.6

Hi! Can you tell me inhibition for each of these compounds?
1. COc1cnc(-c2ccccc2)nc1Sc1ccccc1
2. O=C(c1ccc(NC2=NC3CS(=O)(=O)CC3S2)cc1)N1CCN(C(=O)c2ccco2)CC1 (stereo unspecified)
3. CCOc1nc(-c2ccc(Cl)cc2)nc2ccccc12
4. Cc1ccccc1C(C(=O)NC1CCCCC1)N(C(=O)CNC(=O)c1ccco1)c1cccnc1 (stereo unspecified)
5. CCN(CC)S(=O)(=O)c1ccc(NS(=O)(=O)CC23CCC(CC2=O)C3(C)C)cc1 (stereo unspecified)
6. CC12CCC(C(=O)Nc3ccccc3N3CCOCC3)(CC1=O)C2(C)C (stereo unspecified)

-2.28
-2.98
-0.59
2.42
-3.32
-3.66

Hi! Can you tell me inhibition for each of these compounds?
1. COc1ccc(NC2=NCC(C)S2)cc1 (stereo unspecified)
2. COc1cccc(NC(=O)NC2CCCc3ccccc32)c1 (stereo unspecified)
3. CCOc1ncccc1C(=O)OCC(=O)c1ccccc1
4. O=C(NNc1ccc(-c2csnn2)cc1)c1cc(Cl)cc(Cl)c1

5.03
0.07
-3.62
27.1

----------
experiment: M. tuberculosis H37Rv growth inhibitors, H37Rv strain (AID 1626); details: stronger effect = higher value, concentration not given here;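 also: bacteria incubated seven days before Alamar blue readout; 0% = bacteria only wells and 100% = bacteria with antibiotic wells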
Screen size: about 220,000 compounds; about 2,000 (0.91%) were called active. About 2% were inconclusive and are not listed. These entries were drawn from the full list. Results with a measured potency or affinity are listed apart.
I'd appreciate it if you could supply inhibition values for the items below.
Numbers only, in %.

Some molecules with recorded inhibition:
{"MOLECULE": "COc1cccc2sc(Nc3nc(-c4ccncc4)cs3)nc12", "U": "%", "inhibition": 1.36}
{"MOLECULE": "COc1ccc(C(C)=O)cc1COC(=O)C(CO)NS(=O)(=O)c1ccc(Br)cc1 (stereo not given)", "U": "%", "inhibition": 7.85}
{"MOLECULE": "CCc1cccc(C)c1NC(=O)COC(=O)c1c2c(nc3ccccc13)/C(=C\\c1cccs1)CCC2", "U": "%", "inhibition": 1.95}
{"MOLECULE": "CCCCNC(=O)COC(=O)c1c2c(nc3ccccc13)/C(=C/c1cccs1)CC2", "U": "%", "inhibition": 36.5}

Hi! Can you tell me inhibition for each of these molecules?
1. CC(C)C1=C2CCCCC2NC(=O)N1 (stereo not given)
2. Oc1ccc(Nc2ccnc3cc(Cl)ccc23)cc1
3. COc1ccc(NC(=O)COC(=O)c2c3c(nc4ccccc24)CCCC3)cc1
4. CC(=O)Nc1ccc(-c2csc(NC(=O)C3CC(=O)N(c4ccc5c(c4)OCCO5)C3)n2)cc1 (stereo not given)
5. CCOC(=O)C1CCCN(Cc2cc(Br)c(OC)cc2OC)C1 (stereo not given)
6. CC(=O)Nc1ccc(S(=O)(=O)NC(C)C(=O)NCCc2ccc(F)cc2)cc1 (stereo not given)

[-3.19, -0.59, -13.1, -1.99, 1.19, 1.81]

Hi! Can you tell me inhibition for each of these molecules?
1. Cc1ccccc1C(=O)Nc1nnc(-c2cccnc2)o1
2. CCOc1cc(C(=O)Nc2ccc(F)cc2)cc(Br)c1OC
3. COc1ccc(NC(=O)c2cc(Cl)ccc2Cl)c([N+](=O)[O-])c1
4. COc1cc(OC)c(Nc2cc(C)nc3nc(C)nn23)cc1Cl

1: 20.8; 2: 9.07; 3: 0.17; 4: 10.9

Hi! Can you tell me inhibition for each of these molecules?
1. COc1ccc(Oc2ccc(NC(=O)c3ccccc3C)cc2)cc1
2. Cc1cc(NCCN2CCOCC2)n2ncc(-c3ccccc3)c2n1

1: 9.33; 2: 8.29

----------
test: M. tuberculosis H37Rv growth inhibitors, H37Rv strain (AID 1626); details: stronger effect = higher value, concentration not given here;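 also: bacteria incubated seven days before Alamar blue readout; 0% = bacteria only wells and 100% = bacteria with antibiotic wells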
Among all 220,000 compounds or so, about 2,000 (0.91%) were called active. Another 2% or so got no clear call; they are omitted. A selection follows. Entries with a potency or affinity are not part of this list.
MEASURE: inhibition

Hi! Can you tell me inhibition for each of these compounds?
1. COC(=O)/C(C#N)=C/c1c[nH]c2ccccc12
2. O=C(Nc1ccc(F)cc1)Nc1nnc(-c2ccccc2)o1
3. COc1cc(/C=C(\NC(C)=O)C(=O)NC(C)(C)C)ccc1OC(C)=O
4. COc1ccc(CCC(=O)N/N=C\c2cccs2)cc1
5. CCC(=O)N1CCc2cc(S(=O)(=O)CCC(=O)NCc3ccco3)ccc21
6. O=C(CCc1ccccc1)NC1CCSC1=O (centres undefined)

["7.57% (inactive)", "-7.42% (inactive)", "-3% (inactive)", "36.8% (inactive)", "-7.3% (inactive)", "-9.93% (inactive)"]
